All values here come from BindingDB's records for patent US20250313563.

Measured pIC50, listed per entry.
target: Glycogen synthase kinase-3 beta (Homo sapiens)
Sequence (P49841 whole entry): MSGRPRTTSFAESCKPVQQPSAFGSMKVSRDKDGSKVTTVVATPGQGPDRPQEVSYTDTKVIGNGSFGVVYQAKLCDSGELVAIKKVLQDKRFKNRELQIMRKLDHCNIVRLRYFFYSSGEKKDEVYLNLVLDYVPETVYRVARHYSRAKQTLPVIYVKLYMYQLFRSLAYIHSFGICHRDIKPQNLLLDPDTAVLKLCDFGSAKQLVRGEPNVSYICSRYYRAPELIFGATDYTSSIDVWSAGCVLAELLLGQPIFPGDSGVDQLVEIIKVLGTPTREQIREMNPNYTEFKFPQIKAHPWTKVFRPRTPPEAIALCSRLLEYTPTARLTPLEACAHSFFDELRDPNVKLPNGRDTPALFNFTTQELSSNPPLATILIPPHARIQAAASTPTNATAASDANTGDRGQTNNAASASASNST
pIC50: −log10 of the molar value.

Answered cases to consult:
INSERT INTO results (molecule, assayed_system, measurement) VALUES
  ('CC[C@]1(c2cccc(Br)c2)C2=CN=NC2NC2=C1C(=O)CC(C)(C)C2 (stereo partly specified) [US20250313563, Compound 790733]', 'Glycogen synthase kinase-3 beta (Homo sapiens)', '5.30 to 6.00'),
  ('CC[C@@]1(c2ccccc2)C2=CN=NC2NC2=C1C(=O)C[C@]1(CCN(C)C1=O)C2 (stereo partly specified) [US20250313563, Compound 949753]', 'Glycogen synthase kinase-3 beta (Homo sapiens)', '< 5.30'),
  ('CCC1(c2cccc(CS(C)(=O)=O)c2)C2=CN=NC2NC2=C1C(=O)CC(C)(C)C2 (stereo unspecified) [US20250313563, Compound 945601]', 'Glycogen synthase kinase-3 beta (Homo sapiens)', '6.00 to 7.00'),
  ('CCC1(c2cccc(C3CCCC3)c2)C2=CN=NC2NC2=C1C(=O)CC(C)(C)C2 (stereo unspecified) [US20250313563, Compound 949082]', 'Glycogen synthase kinase-3 beta (Homo sapiens)', '> 7.00'),
  ('CC[C@]1(c2cccc(-c3ccnc(C)c3)c2)C2=CN=NC2NC2=C1C(=O)[C@@H]1CC[C@H]2C1 (stereo partly specified) [US20250313563, Compound 943921]', 'Glycogen synthase kinase-3 beta (Homo sapiens)', '< 5.30');

Request body: readout pIC50, system Glycogen synthase kinase-3 beta (Homo sapiens), query CC[C@]1(c2cccc(C3=C4CC=C(F)C=C4N=CC3)c2)C2=CN=NC2NC2=C1C(=O)NC(C)(C)C2 (stereo partly specified) [US20250313563, Compound 948519] . Return the value. < 5.30

###

Assay system Glycogen synthase kinase-3 beta (Homo sapiens, UniProt P49841); read-out recorded as IC50.

INSERT INTO measurements (molecule, experimental_endpoint, measurement) VALUES
  ('O=C1CCCC2=C1C1(CCOCC1)C1=C(N=NC1)N2', 'IC50', '> 5000 nM');

Which IC50 value is on record for CC[C@]1(c2cccc(-c3cc(C)nnc3C)c2)C2=C(CC(C)(C)NC2=O)NC2N=NC(C(F)(F)F)=C21 (some centres undefined) ? < 100 nM

Try this molecule next: Cn1ccc(S(=O)(=O)N2CCC3(CC2)C2=C(N=NC2)NC2=C3C(=O)CC(C)(C)[C@H]2F)n1 100 to 1000 nM

What about this molecule? CC1(C)CC(=O)C2=C(C1)NC1=C(CN=N1)C21CN(CC(F)(F)F)C1 100 to 1000 nM

Query CC1(C)CC(=O)C2=C(C1)NC1N=NC(C(F)(F)F)=C1C21CCCOc2ccccc21 (centres undefined) next > 5000 nM

Next: CC1(C)CC(=O)C2=C(C1)NC1=C(CN=N1)C21CCc2c(F)cccc21 (centres undefined) > 1670 nM

Another: CC[C@]1(c2ccccc2)C2=CN=NC2NC2=C1C(=O)C[C@H](C)C2 (some centres undefined) 100 to 1000 nM

###

Observed pIC50 for Glycogen synthase kinase-3 beta (Homo sapiens), reported per entry below.
pIC50: −log10 of the molar value.

These solved cases illustrate the format of a correct answer.
INSERT INTO results (molecule, assayed_system, measurement) VALUES
  ('CC1(C)CC(=O)C2=C(C1)NC1=C(CN=N1)[C@@]21CCN(S(=O)(=O)CC2CC2)C1', 'Glycogen synthase kinase-3 beta (Homo sapiens)', '> 7.00'),
  ('CCC1(c2cccc(N3CC(C)(C)C3C(C)C)c2)C2=CN=NC2NC2=C1C(=O)CC(C)(C)C2 (configuration not stated)', 'Glycogen synthase kinase-3 beta (Homo sapiens)', '5.30 to 6.00'),
  ('CC[C@@]1(c2cccc(C(F)(F)F)c2)C2=CN=NC2NC2=C1C(=O)N(C(C)(C)C)CC2 (some centres not stated)', 'Glycogen synthase kinase-3 beta (Homo sapiens)', '< 5.30'),
  ('CCC1(c2cccc(-c3ccnn3C)c2)C2=CN=NC2NC2=C1C(=O)CC(C)(C)C2 (configuration not stated)', 'Glycogen synthase kinase-3 beta (Homo sapiens)', '> 7.00'),
  ('CC[C@@]1(c2ccccc2)C2=CN=NC2NC2=C1C(=O)[C@@H](C)C[C@H]2C (some centres not stated)', 'Glycogen synthase kinase-3 beta (Homo sapiens)', '< 5.30'),
  ('CC[C@@]1(c2cccc(OC)c2)C2=CN=NC2NC2=C1C(=O)C[C@H](C)C2 (some centres not stated)', 'Glycogen synthase kinase-3 beta (Homo sapiens)', '6.00 to 7.00');

Turning now to a further record.
# lookup: pIC50 of CCC1(c2cccc(OC(C)C)c2)C2=CN=NC2NC2=C1C(=O)CC(C)(C)C2 (configuration not stated) 6.00 to 7.00

###

// each record: one item and its IC50 for Glycogen synthase kinase-3 alpha (Homo sapiens, UniProt P49840)

What IC50 appears in the records for this molecule with Glycogen synthase kinase-3 alpha (Homo sapiens, UniProt P49840)? CCC1(c2cccc(C)c2)C2=C(N=NC2)NC2=C1C(=O)CC1(CCCC1)C2 (stereo not drawn) < 100 nM

###

Test system Glycogen synthase kinase-3 alpha (Homo sapiens), IC50 listed for each of the compounds.

Item under review: CCC1(c2cccc(CS(C)(=O)=O)c2)C2=CN=NC2NC2=C1C(=O)CC(C)(C)C2 (stereo unspecified) . Reported IC50? 100 to 1000 nM

###

The following compounds each carry a recorded IC50 for Glycogen synthase kinase-3 alpha (Homo sapiens).

Answered cases to consult:
INSERT INTO measurements (compound, measurement) VALUES
  ('CC[C@@]1(c2cccc(N(C)c3nccc(OC)n3)c2)C2=CN=NC2NC2=C1C(=O)CC(C)(C)C2 (stereo partly drawn) [US20250313563, Compound 947337]', '0.1 to 1 µM'),
  ('CC1(C)CC(=O)C2=C(C1)NC1=C(CN=N1)[C@@]2(C)c1cc(C(F)(F)F)ccc1F [US20250313563, Compound 816797]', '1 to 5 µM'),
  ('CC[C@]1(c2cccc(N(C)c3ncccn3)c2)C2=C(CC(C)(C)NC2=O)NC2N=NC(F)=C21 (stereo partly drawn) [US20250313563, Compound 949647]', '0.1 to 1 µM'),
  ('CC[C@@]1(c2cccc(-c3cnn(-c4ccccn4)c3)c2)C2=CN=NC2NC2=C1C(=O)NC(C)(C)C2 (stereo partly drawn) [US20250313563, Compound 952566]', '0.1 to 1 µM');

Reported IC50 for CC[C@@]1(c2cccc(-c3cnn(C)c3)c2)C2=CN=NC2NC2=C1C(=O)C[C@H](C)C2 (stereo partly drawn) [US20250313563, Compound 823724] : what is it? 0.1 to 1 µM

Another: CC[C@@]1(c2cccc(S(=O)(=O)C(C)C)c2)C2=C(CC(C)(C)NC2=O)NC2N=NC(C(F)(F)F)=C21 (stereo partly drawn) [US20250313563, Compound 948423] < 0.1 µM

Cool, now CC[C@@]1(c2cccc(-c3ccnc(N(C)C)c3)c2)C2=C(CC(C)(C)CC2=O)NC2N=NC(C)=C21 (stereo partly drawn) [US20250313563, Compound 913021] < 0.1 µM

Let us now turn to CCC1(c2cccc(OC)c2)C2=CN=NC2NC2=C1C(=O)CC(C)(C)C2 (stereo not drawn) [US20250313563, Compound 801447] 0.1 to 1 µM

Follow-up item: Cn1cc(-c2cccc([C@]3(C)C4=C(CC(C)(C)CC4=O)NC4=C3C(CC(C)(C)C)N=N4)c2)cn1 (stereo partly drawn) [US20250313563, Compound 126393] 1 to 5 µM

Now the compound CC1(C)CC(=O)C2=C(C1)NC1=C(CN=N1)[C@]21CCO[C@@H](C(F)(F)F)C1 [US20250313563, Compound 884021] 0.1 to 1 µM

Same question for CC1(C)CC(=O)C2=C(C1)NC1N=NC=C1[C@@]21CCCN(S(=O)(=O)Cc2ccccc2)CC1 (stereo partly drawn) [US20250313563, Compound 945473] please. < 0.1 µM

Okay, and CCc1cc(-c2cccc([C@]3(CC)C4=CN=NC4NC4=C3C(=O)NC(C)(C)C4)c2)ccn1 (stereo partly drawn) [US20250313563, Compound 948370] ? < 0.1 µM

Next up: CC[C@]1(c2cccc(-c3ccnc(C)c3)c2)C2=C(N=NC2)NC2=C1C(=O)C(C)(C)C2 [US20250313563, Compound 950282] < 0.1 µM

###

molecular target: UniProt:P49841
pIC50: −log10 of the molar value.
experimental-endpoint: pIC50

In the examples that follow, each entry is paired with its recorded pIC50.
INSERT INTO measurements (molecule, experimental_endpoint, measurement) VALUES
  ('CCCC(C(C)=O)c1cccc(C2(CC)C3=CN=NC3NC3=C2C(=O)CC(C)(C)C3)c1 (stereo not drawn)', 'pIC50', '> 7.00'),
  ('CCC1(c2cccc(N(c3cccnc3)C(C)C)c2)C2=CN=NC2NC2=C1C(=O)CC(C)(C)C2 (stereo not drawn)', 'pIC50', '> 7.00');

Tell me the measured pIC50 of CC1(C)CC(=O)C2=C(C1)NC1=C(CN=N1)C21CCN(S(=O)(=O)c2ccccc2C(F)(F)F)CC1 , please. 6.00 to 7.00
